I'd appreciate it if you could supply cAMP EC50 (1.0% HSA) values for the items below.
- system name: T1, human GIP receptor (human, UniProt P48546 22-466)
- T1 sequence (looked up): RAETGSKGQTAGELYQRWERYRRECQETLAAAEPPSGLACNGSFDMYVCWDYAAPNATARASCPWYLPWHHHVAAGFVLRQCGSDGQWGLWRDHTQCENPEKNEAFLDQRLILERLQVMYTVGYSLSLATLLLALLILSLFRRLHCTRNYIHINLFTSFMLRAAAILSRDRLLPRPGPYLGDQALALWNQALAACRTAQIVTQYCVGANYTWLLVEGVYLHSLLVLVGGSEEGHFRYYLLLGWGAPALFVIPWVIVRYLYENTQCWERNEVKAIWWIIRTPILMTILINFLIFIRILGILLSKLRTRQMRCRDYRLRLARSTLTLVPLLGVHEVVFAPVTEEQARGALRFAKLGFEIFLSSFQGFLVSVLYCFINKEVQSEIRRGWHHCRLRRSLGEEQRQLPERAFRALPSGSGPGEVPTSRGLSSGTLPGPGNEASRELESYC
- assay summary: cell-based or functional assay
*1 amine or outer side, *2 acyl side, *3 side chain or, on linkers, in order; H or OH if unused. Where no end group is shown, it is not given here. Side-chain parts run from the residue outwards. [ ]: non-standard residue; d: D form. The star is where a group is joined. Decanoyl(10-(4-HOOC-PhO)) = O=C(O)c1ccc(OCCCCCCCCCC(=O)*)cc1; αMePhe(2-F) = C[C@](N)(Cc1ccccc1F)C(=O)O; γGlu = O=C(O)[C@H](CCC(=O)[*:2])N[*:1]; αMeY = C[C@](N)(Cc1ccc(O)cc1)C(=O)O; αMeL = CC(C)C[C@](C)(N)C(=O)O; Orn = NCCC[C@H](N)C(=O)O; AEEA = NCCOCCOCC(=O)O; Aib = CC(C)(N)C(=O)O
Your reply should be a number followed by the unit it is expressed in.

Q: Record request: cAMP EC50 (1.0% HSA) value, item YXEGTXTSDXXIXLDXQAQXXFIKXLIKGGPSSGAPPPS (Y-Aib-EGT-αMeF(2F)-TSD-4Pal-Aib-I-αMeL-LD-Orn-QAQ-Aib-Orn-FIK(2-[2-(2-Amino-ethoxy)-ethoxy]-acetyl)2-(γ-Glu)-(11-(4-carboxyphenoxy)undecanoyl)-αMeY-LIK((2-[2-(2-Amino-ethoxy)-ethoxy]-acetyl)2-(γ-Glu)-(11-(4-carboxyphenoxy)undecanoyl)GGPSSGAPPPS-NH2)) [Example 442]
Result: 0.687 nM

Q: Record request: cAMP EC50 (1.0% HSA) value, item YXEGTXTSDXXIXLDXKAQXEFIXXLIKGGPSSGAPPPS (Y-Aib-EGT-αMeF(2F)-TSD-4Pal-Aib-I-αMeL-LD-Orn-K((2-[2-(2-Amino-ethoxy)-ethoxy]-acetyl)-(γ-Glu)-CO-(CH2)10-CH3)AQ-Aib-EFI-(D-Glu)-αMeY-LIK((2-[2-(2-Amino-ethoxy)-ethoxy]-acetyl)-(γ-Glu)-CO-(CH2)10-CH3)GGPSSGAPPPS-NH2) [Example 427]
Result: 2.04 nM

Q: Record request: cAMP EC50 (1.0% HSA) value, item Y[Aib]EGT[αMePhe(2-F)]TSDV[Aib]I[αMeL]LD[Orn]IAQ[Aib]EFIK([AEEA-γGlu-Decanoyl(10-(4-HOOC-PhO))])[αMeY]LIK([AEEA-γGlu-Decanoyl(10-(4-HOOC-PhO))])GGPSSGAPPPS-NH2 [Example 381]
Result: 28 nM

Q: Record request: cAMP EC50 (1.0% HSA) value, item YXEGTXTSDXXIXLDXQAQXEFIKXLIKGGPSSGAPPPS (Y-Aib-EGT-αMeF(2F)-TSD-4Pal-Aib-I-αMeL-LD-Orn-QAQ-Aib-EFIK((2-[2-(2-Amino-ethoxy)-ethoxy]-acetyl)3-(γ-Glu)-CO-(CH2)12-CO2H)-αMeY-LIK((2-[2-(2-Amino-ethoxy)-ethoxy]-acetyl)3-(γ-Glu)-CO-(CH2)12-CO2H)GGPSSGAPPPS-NH2) [Example 460]
Result: 0.506 nM

Q: Record request: cAMP EC50 (1.0% HSA) value, item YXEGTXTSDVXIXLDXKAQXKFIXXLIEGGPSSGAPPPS (Y-Aib-EGT-αMeF(2F)-TSDV-Aib-I-αMeL-LD-Orn-K((2-[2-(2-Amino-ethoxy)-ethoxy]-acetyl)2-(10-(4-carboxyphenoxy)decanoyl))AQ-Aib-K((2-[2-(2-Amino-ethoxy)-ethoxy]-acetyl)2-(10-(4-carboxyphenoxy)decanoyl))FI-(D-Glu)-αMeY-LIEGGPSSGAPPPS-NH2) [Example 394]
Result: 1.38 nM
